# Tested on: Trichomonas vaginalis
measured_metric: MIC (µg/mL)
Give just the number in µg/mL; leave the unit off.

Look at this molecule and give its reported MIC. "Cc1cc(C)nc(-c2ncc([N+](=O)[O-])n2C)n1"
0.4

Look at this molecule and give its reported MIC. "Cc1nc(-c2ncc([N+](=O)[O-])n2C)nc2c1CCc1ccccc1-2"
0.1

Look at this molecule and give its reported MIC. "Cn1c([N+](=O)[O-])cnc1-c1nc(-c2cccs2)cc(C(F)(F)F)n1"
0.2

Look at this molecule and give its reported MIC. Cc1ncc([N+](=O)[O-])n1CCO [Metronidazole]
1.6

Look at this molecule and give its reported MIC. "Cc1cc(-c2ccccc2)nc(-c2ncc([N+](=O)[O-])n2C)n1"
0.2

These entries and their values trace back to patent US3966732A.
